All figures here come from the domain aggregation screens of Martell et al. (2025).

test: soluble fraction after stress (log2 fold change); higher = more stays soluble; pooled small domains, quantitative proteomics; conditions: stress: 50 degC
So basically: soluble fraction (log2) at -0.07 or higher? That is true. Lower than -0.07? That is false.

- chain: "HMAPEPFILSVDADGKYYIDDLEKTKQEILIYATALYQEKPTTDFLVRGDKSAAYNDVLQAMVVLKE"
  qualitative.label: "true"
- chain: "HMPETYVVFSKDGYANLRRGTTINSEILDVLDNGEYVTKLDEVGEWYRVEYADFDGGYIHKSQLKNI"
  qualitative.label: "false"
- chain: "HMGVVEEVAADFEGRAVVGKVDVDEQTELARRFGIMSIPTLVVMKGGKVVEQAVGARGKADIAAMLERH"
  qualitative.label: "true"
- chain: "HMNEGETLYRLRAGDGRARLDKFLAAALPDISRTRFKGLIESGHVRVGGETITEPAYRVKSEAEVELTVPE"
  qualitative.label: "true"
- chain: "HMSSDEDELESIIKRVFADNPIELERLQNGEDKLIKFFMGLVMRQTKGKYPPKIIIDLLNKS"
  qualitative.label: "false"
- chain: "HMDLDIRDDIYRANIPNDYKLQQMQNNIDYDKVLTGYYNNRPEANVIANRTLQLANDVYNRD"
  qualitative.label: "true"
- chain: "HMLPVYSITEAAERLDIPASTIKWYADRFASYISPSKGKGRKRFTPEDLATLQKIHELSQDHTTEEAEAML"
  qualitative.label: "false"
